- system name: Adenosine receptor A3 (Homo sapiens, UniProt P0DMS8)
- test description: Displacement of [3H]HEMADO from recombinant human adenosine […] receptor expressed in CHO cell membranes after 3 hrs by microbeta scintillation counting
metric: Ki (nM)

Study these solved cases before continuing.
CCn1nnc([C@H]2O[C@@H](n3cnc4c(NCc5ccco5)ncnc43)C(O)C2O)n1 (single isomer, unassigned) : 4.85
CCn1nnc([C@H]2O[C@@H](n3cnc4c(NCc5ccc(Cl)cc5F)nc(Cl)nc43)[C@H](O)[C@@H]2O)n1 : 5.17
CCn1nnc([C@H]2O[C@@H](n3cnc4c(NCC5CC5)ncnc43)[C@H](O)[C@@H]2O)n1 : 0.575

1. CCn1nnc([C@H]2O[C@@H](n3cnc4c(NCc5cccc(I)c5)ncnc43)C(O)C2O)n1 (single isomer, unassigned)
2. CCn1nnc([C@H]2O[C@@H](n3cnc4c(NCc5cccs5)nc(Cl)nc43)[C@H](O)[C@@H]2O)n1
Challenge: Consider 1 and 2 . Which of these has its Ki at a higher number? // caller expects the label of the chosen entry
Response given: 2
(2: 1.59 nM, 1: 0.532 nM)

A. CCn1nnc([C@H]2O[C@@H](n3cnc4c(NC5CC5)ncnc43)[C@H](O)[C@@H]2O)n1
B. CCn1nnc([C@H]2O[C@@H](n3cnc4c(NCc5ccco5)nc(Cl)nc43)[C@H](O)[C@@H]2O)n1
Challenge: Look at A and B . Which one has the lower recorded Ki number? // caller expects the label of the chosen entry
Response given: A
(A: 0.875 nM, B: 1.31 nM)

----------
- Species: Homo sapiens
- test description: Selectivity ratio of Ki for recombinant human adenosine A2A receptor expressed in CHO cell membranes to Ki for recombinant human adenosine A1 receptor expressed in CHO cell membranes
- Type: cell-based
metric: Ratio Ki
Keep it simple and answer with nothing but the number.

Study these solved cases before continuing.
CCn1nnc([C@H]2O[C@@H](n3cnc4c(NCc5cccs5)nc(Cl)nc43)[C@H](O)[C@@H]2O)n1 : 47
CCn1nnc([C@H]2O[C@@H](n3cnc4c(NCC5CC5)ncnc43)[C@H](O)[C@@H]2O)n1 : 256
CCn1nnc([C@H]2O[C@@H](n3cnc4c(NCc5ccco5)ncnc43)C(O)C2O)n1 (single isomer, unassigned) : 32

Challenge: // returns reported Ratio Ki for input "CCn1nnc([C@H]2O[C@@H](n3cnc4c(NCc5cccc(F)c5)nc(Cl)nc43)[C@H](O)[C@@H]2O)n1"
Response given: 40

Challenge: And for CCn1nnc([C@H]2O[C@@H](n3cnc4c(NCc5cccc(I)c5)ncnc43)C(O)C2O)n1 (single isomer, unassigned) ?
Response given: 22

Challenge: And for CCn1nnc([C@H]2O[C@@H](n3cnc4c(NCc5ccc(Cl)cc5F)ncnc43)C(O)C2O)n1 (single isomer, unassigned) ?
Response given: 59

----------
- system name: Adenosine receptor A3 (Homo sapiens)
- test description: Displacement of [3H]HEMADO from recombinant human adenosine […] receptor expressed in CHO cell membranes after 3 hrs by microbeta scintillation counting
metric: Ki (nM)

Study these solved cases before continuing.
CCn1nnc([C@H]2O[C@@H](n3cnc4c(NCc5cccc(F)c5)ncnc43)C(O)C2O)n1 (single isomer, unassigned) : 1.2
CCn1nnc([C@H]2O[C@@H](n3cnc4c(NCc5ccc(Cl)cc5F)ncnc43)C(O)C2O)n1 (single isomer, unassigned) : 4.67

a. CCn1nnc([C@H]2O[C@@H](n3cnc4c(NC5CC5)nc(Cl)nc43)[C@H](O)[C@@H]2O)n1
b. CCn1nnc([C@H]2O[C@@H](n3cnc4c(NCC5CC5)nc(Cl)nc43)[C@H](O)[C@@H]2O)n1
Challenge: Consider a and b . Which of these has its Ki at a higher number? // caller expects the label of the chosen entry
Response given: a

----------
- system name: Adenosine receptor A3 (Homo sapiens)
- Sequence (P0DMS8 whole entry): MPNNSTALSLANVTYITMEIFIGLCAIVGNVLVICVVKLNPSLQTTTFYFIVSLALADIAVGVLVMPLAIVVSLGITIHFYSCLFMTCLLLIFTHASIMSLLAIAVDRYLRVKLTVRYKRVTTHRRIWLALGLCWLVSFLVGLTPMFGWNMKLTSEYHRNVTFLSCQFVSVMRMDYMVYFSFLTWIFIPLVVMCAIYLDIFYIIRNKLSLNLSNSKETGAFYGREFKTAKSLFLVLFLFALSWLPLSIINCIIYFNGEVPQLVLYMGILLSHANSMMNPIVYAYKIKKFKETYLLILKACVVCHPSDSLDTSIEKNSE
- test description: Antagonist activity at recombinant human adenosine A3 receptor expressed in CHO cell membranes assessed as reversal of NECA-mediated inhibition of adenylyl cyclase activity after 10 mins by [alpha-32P]ATP assay
pEC50: −log10 of the molar value.
metric: pEC50

Study these solved cases before continuing.
CCn1nnc([C@H]2O[C@@H](n3cnc4c(NC5CC5)nc(Cl)nc43)[C@H](O)[C@@H]2O)n1 : 7.85
CCn1nnc([C@H]2O[C@@H](n3cnc4c(NCc5cccs5)nc(Cl)nc43)[C@H](O)[C@@H]2O)n1 : 7.35
CCn1nnc([C@H]2O[C@@H](n3cnc4c(NCc5cccc(Br)c5)ncnc43)C(O)C2O)n1 (single isomer, unassigned) : 8.68
CCn1nnc([C@H]2O[C@@H](n3cnc4c(NCc5cccc(F)c5)ncnc43)C(O)C2O)n1 (single isomer, unassigned) : 7.90
CCn1nnc([C@H]2O[C@@H](n3cnc4c(NCc5ccc(Cl)cc5F)ncnc43)C(O)C2O)n1 (single isomer, unassigned) : 7.60

A. CCn1nnc([C@H]2O[C@@H](n3cnc4c(NCc5cccc(I)c5)ncnc43)C(O)C2O)n1 (single isomer, unassigned)
B. CCn1nnc([C@H]2O[C@@H](n3cnc4c(NCC5CC5)nc(Cl)nc43)[C@H](O)[C@@H]2O)n1
C. CCn1nnc([C@H]2O[C@@H](n3cnc4c(NC5CC5)ncnc43)[C@H](O)[C@@H]2O)n1
D. CCn1nnc([C@H]2O[C@@H](n3cnc4c(NCc5cccs5)ncnc43)C(O)C2O)n1 (single isomer, unassigned)
E. CCn1nnc([C@H]2O[C@@H](n3cnc4c(NCc5ccco5)ncnc43)C(O)C2O)n1 (single isomer, unassigned)
Challenge: Which order do these items take when sorted by rising pEC50? List them. List the labels according to the requested ordering.
Response given: E, D, B, C, A
(E: 6.90, D: 7.22, B: 7.84, C: 8.27, A: 8.62)

1. CCn1nnc([C@H]2O[C@@H](n3cnc4c(NCc5cccc(Cl)c5)nc(Cl)nc43)[C@H](O)[C@@H]2O)n1
2. CCn1nnc([C@H]2O[C@@H](n3cnc4c(NCC5CC5)ncnc43)[C@H](O)[C@@H]2O)n1
Challenge: Look at 1 and 2 . Which one has the lower recorded pEC50 number? // caller expects the label of the chosen entry
Response given: 1

I. CCn1nnc([C@H]2O[C@@H](n3cnc4c(NCc5ccc(Cl)cc5F)nc(Cl)nc43)[C@H](O)[C@@H]2O)n1
II. CCn1nnc([C@H]2O[C@@H](n3cnc4c(NCc5cccc(Cl)c5)ncnc43)[C@H](O)[C@@H]2O)n1
III. CCn1nnc([C@H]2O[C@@H](n3cnc4c(NCc5cccc(Br)c5)nc(Cl)nc43)[C@H](O)[C@@H]2O)n1
IV. CCn1nnc([C@H]2O[C@@H](n3cnc4c(NCc5ccco5)nc(Cl)nc43)[C@H](O)[C@@H]2O)n1
Challenge: Which order do these items take when sorted by rising pEC50? List them. List the labels according to the requested ordering.
Response given: I, IV, III, II
(I: 6.98, IV: 7.28, III: 8.02, II: 8.66)

----------
- system name: Adenosine receptors; A1 & A3 (Homo sapiens) (UniProt P30542+P0DMS8)
- test description: Selectivity ratio of Ki for recombinant human adenosine A3 receptor expressed in CHO cell membranes to Ki for recombinant human adenosine A1 receptor expressed in CHO cell membranes
- Format: cell-based
metric: Ratio Ki

A. CCn1nnc([C@H]2O[C@@H](n3cnc4c(NCc5cccc(Br)c5)ncnc43)C(O)C2O)n1 (single isomer, unassigned)
B. CCn1nnc([C@H]2O[C@@H](n3cnc4c(NCc5cccs5)ncnc43)C(O)C2O)n1 (single isomer, unassigned)
C. CCn1nnc([C@H]2O[C@@H](n3cnc4c(NCC5CC5)ncnc43)[C@H](O)[C@@H]2O)n1
D. CCn1nnc([C@H]2O[C@@H](n3cnc4c(NCc5cccc(Cl)c5)ncnc43)[C@H](O)[C@@H]2O)n1
Challenge: Order them by Ratio Ki, ascending: the compounds above. List the labels according to the requested ordering.
Response given: D, A, B, C
(D: 0.27, A: 0.4, B: 0.67, C: 1.3)

----------
- Species on record: Homo sapiens
- test description: Selectivity ratio of Ki for recombinant human adenosine A2A receptor expressed in CHO cell membranes to Ki for recombinant human adenosine A1 receptor expressed in CHO cell membranes
- Format: cell-based
# Ratio Ki per record follows
Keep it simple and answer with nothing but the number.

Study these solved cases before continuing.
CCn1nnc([C@H]2O[C@@H](n3cnc4c(NCc5cccc(Br)c5)nc(Cl)nc43)[C@H](O)[C@@H]2O)n1 : 32
CCn1nnc([C@H]2O[C@@H](n3cnc4c(NCc5cccs5)ncnc43)C(O)C2O)n1 (single isomer, unassigned) : 28
CCn1nnc([C@H]2O[C@@H](n3cnc4c(NCc5cccc(Cl)c5)nc(Cl)nc43)[C@H](O)[C@@H]2O)n1 : 40
CCn1nnc([C@H]2O[C@@H](n3cnc4c(NCc5cccc(F)c5)ncnc43)C(O)C2O)n1 (single isomer, unassigned) : 20

In the following, a different compound is considered.
Challenge: // returns reported Ratio Ki for input "CCn1nnc([C@H]2O[C@@H](n3cnc4c(NCc5cccc(Cl)c5)ncnc43)[C@H](O)[C@@H]2O)n1"
Response given: 21
